Values compiled from PubChem BioAssay.

test: inhibitors of TNFa-induced NFkB p65 translocation, primary screen, imaging, HUVEC, MLSMR starter and 10KST1 sets (AID 438); details: HUVEC TNFa-induced p65 nuclear translocation; at 2 µM, stronger effect = higher value, 0% TNFa-plus-vehicle, 100% no-TNFa wells;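 note: compound added about 3h40 before a 20 min TNFalpha stimulation; signal is the nuclear over cytoplasmic p65 intensity ratio per well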
OBSERVABLE: inhibition (%)
Write it as a number; the unit % goes unstated.

input: Suppose we examine the compound CCOC(=O)C1CCCN(c2c(Nc3ccc(C)c(C)c3)c(=O)c2=O)C1 (stereo unspecified) ; what inhibition value has been reported?
output: 9

input: Suppose we examine the compound CCOc1ccc(OCC)c(NC(=O)C2CCN(c3ncccn3)CC2)c1 ; what inhibition value has been reported?
output: -14.2

input: Suppose we examine the compound COc1cc2c(cc1OC)CN(C(=O)COc1ccc(C)c(C)c1)CC2 ; what inhibition value has been reported?
output: -3

input: Suppose we examine the compound N=c1c(C(=O)NCc2ccc3c(c2)OCO3)cc2c(=O)n3ccccc3nc2n1Cc1cccnc1 ; what inhibition value has been reported?
output: -5.2

input: Suppose we examine the compound CN=C(Nc1ccc2c(c1)OCO2)SC1CC(=O)N(c2ccccc2)C1=O (stereo unspecified) ; what inhibition value has been reported?
output: 11

input: Suppose we examine the compound COc1ccc(C2=NO[C@@H]3C(=O)N(c4cccc(C)c4C)C(=O)[C@H]23)cc1OC ; what inhibition value has been reported?
output: -12.3

input: Suppose we examine the compound Cc1cccc2c1nc(-c1ccccc1)n1cnnc21 ; what inhibition value has been reported?
output: -10.7

input: Suppose we examine the compound CCOC(=O)c1sc2cccc(F)c2c1N ; what inhibition value has been reported?
output: -17.8

input: Suppose we examine the compound CCn1c(SCC(=O)Nc2cc(NC(C)=O)ccc2OC)nnc1-c1ccccn1 ; what inhibition value has been reported?
output: 6.5

input: Suppose we examine the compound O=C(COC(=O)c1ccccc1O)Nc1ccc(OC(F)F)cc1 ; what inhibition value has been reported?
output: 5.1

input: Suppose we examine the compound COc1cccc(C(=O)OCn2nnc3ccccc3c2=O)c1 ; what inhibition value has been reported?
output: -5.6

----------
I'd appreciate it if you could supply nuclei count values for the items below.
assay: endothelial E-selectin expression blockers – imaging, HUVEC, immunofluorescence, MLSMR starter and 10KST1 sets, primary screen (AID 487); details: HUVEC TNFalpha-induced E-selectin immunofluorescence imaging, at 2 µM; measured here: cell number, toxicity;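 note: 100% = median nuclei count of all wells on the same plate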
Write it as a number; the unit % goes unstated.

input: Suppose we examine the molecule COc1cccc(-c2nnc(NC(=O)Cc3cccs3)s2)c1 ; what nuclei count value has been reported?
output: 92

input: Suppose we examine the molecule CCOc1ccc(C(C)=O)cc1COc1ccc(-n2cnnn2)cc1 ; what nuclei count value has been reported?
output: 132

input: Suppose we examine the molecule COc1ccccc1CN1CC(C(=O)NCc2cccnc2)CC1=O (stereo unspecified) ; what nuclei count value has been reported?
output: 113

input: Suppose we examine the molecule CCOC(=O)N1CCN(C(=O)CSc2nnc(Cc3ccccc3)o2)CC1 ; what nuclei count value has been reported?
output: 102

input: Suppose we examine the molecule CCN(CCO)C(=O)CC(c1ccccc1)c1cc(Br)ccc1O (stereo unspecified) ; what nuclei count value has been reported?
output: 102

input: Suppose we examine the molecule Cc1ccc(CN2C(=O)CCC2C(=O)NCCCN2CCC(C)CC2)cc1 (stereo unspecified) ; what nuclei count value has been reported?
output: 77.7

input: Suppose we examine the molecule Cc1cc(C)nc(SC2=CS(=O)(=O)c3ccccc32)n1 ; what nuclei count value has been reported?
output: 95.9

input: Suppose we examine the molecule Cc1c(C(=O)Nc2cnccn2)oc2ccccc12 ; what nuclei count value has been reported?
output: 108

input: Suppose we examine the molecule O=S(=O)(c1ccc2c(c1)OCCO2)N1CCN(Cc2ccc3c(c2)OCO3)CC1 ; what nuclei count value has been reported?
output: 113

input: Suppose we examine the molecule C=CCn1c(-c2cccs2)nc2nc3ccccc3nc21 ; what nuclei count value has been reported?
output: 141

input: Suppose we examine the molecule COc1ccc(C2=NO[C@@H]3C(=O)N(c4ccc5c(c4)OCCO5)C(=O)[C@H]23)cc1OC ; what nuclei count value has been reported?
output: 98.1

----------
test: TLR3 IRF3 reporter activation blockers – cell-based, poly I:C stimulus, luciferase, 10K MLSCN set, primary screen (AID 602277); details: HEK293-TLR3 RL24 IRF3 luciferase reporter, at 10 µM, stronger effect = higher value
I'd appreciate it if you could supply inhibition values for the items below.
Write it as a number; the unit % goes unstated.

input: Suppose we examine the molecule Cc1ccc(NC(=O)CSc2nnc(-c3ccncc3)n2C)cc1C ; what inhibition value has been reported?
output: -22.4

input: Suppose we examine the molecule CC(C)n1c(NCc2c[nH]c3ccccc23)nc2ccccc21 ; what inhibition value has been reported?
output: -0.81

input: Suppose we examine the molecule O=C(CC1CCS(=O)(=O)C1)Nc1ccc[nH]c1=O (configuration not stated) ; what inhibition value has been reported?
output: 8.75

input: Suppose we examine the molecule CC1CCN(C(=O)Cn2cc3c(n2)CCCC3)CC1 ; what inhibition value has been reported?
output: -60.8

input: Suppose we examine the molecule CC(C)(C)C(=O)/C=C(\N)c1ccccn1 ; what inhibition value has been reported?
output: 2.89

input: Suppose we examine the molecule CCc1nc(C)ccc1OCC(=O)O ; what inhibition value has been reported?
output: -14.7

input: Suppose we examine the molecule CCOC(=O)Cc1csc(/C(=N/O)C(N)=O)n1 ; what inhibition value has been reported?
output: 15.9

input: Suppose we examine the molecule CN(CCCNC(=O)c1cn(C)c2ccc(S(=O)(=O)N(C)C)cc2c1=O)c1ccccc1 ; what inhibition value has been reported?
output: 7.91

input: Suppose we examine the molecule Cc1csc(NC(=O)c2ccco2)n1 ; what inhibition value has been reported?
output: -56.9

input: Suppose we examine the molecule Cc1cc(C)c(C#N)c(SCc2ccc(C#N)cc2)n1 ; what inhibition value has been reported?
output: -3.75

input: Suppose we examine the molecule COc1ccc(NC(=O)CCc2ccccc2)cc1NC(=O)c1ccco1 ; what inhibition value has been reported?
output: 37.2

input: Suppose we examine the molecule CCOC(=O)N1CCC(NC(=O)CSCc2nc(-c3cccc(OC)c3)oc2C)CC1 ; what inhibition value has been reported?
output: -6.15

----------
assay: inhibitors of TNFa-induced NFkB p65 translocation, primary screen, imaging, HUVEC, MLSMR starter and 10KST1 sets (AID 438); details: HUVEC TNFa-induced p65 nuclear translocation; at 2 µM, stronger effect = higher value, 0% TNFa-plus-vehicle, 100% no-TNFa wells;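 note: compound added about 3h40 before a 20 min TNFalpha stimulation; signal is the nuclear over cytoplasmic p65 intensity ratio per well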
I'd appreciate it if you could supply inhibition values for the items below.
Write it as a number; the unit % goes unstated.

input: Suppose we examine the compound CCOC(=O)C1CCN(C(=O)COc2ccc(S(=O)(=O)NC(C)C)cc2Cl)CC1 ; what inhibition value has been reported?
output: 1.5

input: Suppose we examine the compound O=C(CSc1ncnc2c1oc1ccccc12)NCc1ccco1 ; what inhibition value has been reported?
output: 1.5

input: Suppose we examine the compound CC(C)CCNC(=O)C(c1cccs1)N(CC1CCCO1)C(=O)Cn1nnc2ccccc21 (stereo not given) ; what inhibition value has been reported?
output: 8.8

input: Suppose we examine the compound Cc1cc(=O)n(-c2ccc3ccccc3n2)[nH]1 ; what inhibition value has been reported?
output: -0.7

input: Suppose we examine the compound Cc1sc2nc(CN3CCN(S(=O)(=O)c4cccc5nonc45)CC3)[nH]c(=O)c2c1C ; what inhibition value has been reported?
output: -16.4

input: Suppose we examine the compound O=C(NCCOC(=O)C1COc2ccccc2O1)C1COc2ccccc2O1 (stereo not given) ; what inhibition value has been reported?
output: -2.1

input: Suppose we examine the compound CCOC(=O)c1sc(NC(=O)CSc2nnc3c4ccccc4n(CC)c3n2)nc1C ; what inhibition value has been reported?
output: 1.6

input: Suppose we examine the compound Cc1cc(NC(=O)CSc2nc(CCC3CCCC3)nc3ccccc23)no1 ; what inhibition value has been reported?
output: 3.5

input: Suppose we examine the compound Cc1ccc(CSc2nc3c(c(=O)[nH]2)CCC3)cc1 ; what inhibition value has been reported?
output: 11.5

input: Suppose we examine the compound CCC(C)(C)n1nnnc1C(c1ccc(OC)c(OC)c1)N1CCN(c2ccc(F)cc2)CC1 (stereo not given) ; what inhibition value has been reported?
output: 4

----------
I'd appreciate it if you could supply slope values for the items below.
biological target: Alpha-2C adrenergic receptor (Homo sapiens); assay: compounds altering alpha2C-coupled GIRK flux – cell-based, HEK293 alpha2C/GIRK1/2, thallium flux, primary screen (AID 624); settings: thallium flux BTC fluorescence, at 10 µM, actives lie on both sides;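 note: slope of fluorescence ratio to pre-addition baseline per second over 15 to 24 s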
Give a plain numeric answer without units written out.

input: Lab request: please report slope under test system Alpha-2C adrenergic receptor (Homo sapiens) for CCOC(=O)CSc1nnc(-c2ccc(Cl)cc2Cl)o1
output: 0.00557

input: Lab request: please report slope under test system Alpha-2C adrenergic receptor (Homo sapiens) for O=C(Nc1sc2c(c1C(=O)NCc1ccco1)CCCC2)c1ccc2c(c1)OCO2
output: 0.00669

input: Lab request: please report slope under test system Alpha-2C adrenergic receptor (Homo sapiens) for C/C(=N\O)C(=O)NCc1ccccn1
output: 0.00348

input: Lab request: please report slope under test system Alpha-2C adrenergic receptor (Homo sapiens) for CC(Sc1nc(-c2ccccc2)cc(C(F)(F)F)n1)C(=O)N1CCCC1 (stereo unspecified)
output: 0.00611

input: Lab request: please report slope under test system Alpha-2C adrenergic receptor (Homo sapiens) for Cc1cccc(NC2SC(=O)N(c3ccccc3)C2=O)c1 (stereo unspecified)
output: 0.00476

input: Lab request: please report slope under test system Alpha-2C adrenergic receptor (Homo sapiens) for COC(=O)c1cn(NC(=O)C2CCCO2)c(=O)c2ccccc12 (stereo unspecified)
output: 0.0068

input: Lab request: please report slope under test system Alpha-2C adrenergic receptor (Homo sapiens) for CCOC(=O)/C=C1\CC(=O)Nc2nonc2N1
output: 0.00414

input: Lab request: please report slope under test system Alpha-2C adrenergic receptor (Homo sapiens) for CCOC(=O)c1cnc(-n2cc(C)cn2)nc1Nc1ccccc1OC
output: 0.0064

input: Lab request: please report slope under test system Alpha-2C adrenergic receptor (Homo sapiens) for O=C(C1CCC(CNc2c(N3CCCCC3)c(=O)c2=O)CC1)N1CCc2ccccc2C1 (stereo unspecified)
output: 0.00576

input: Lab request: please report slope under test system Alpha-2C adrenergic receptor (Homo sapiens) for CN(c1ccccc1)S(=O)(=O)c1ccc(C(=O)OCC(=O)N2CCOCC2)cc1
output: 0.00565

input: Lab request: please report slope under test system Alpha-2C adrenergic receptor (Homo sapiens) for O=C(CSc1nnc(-c2ccco2)n1-c1ccccc1)N1CCN(C(=O)c2ccco2)CC1
output: 0.00672
